Taken from paper PMC8224742.

assay.procedure: Intravenous MDZ (1.0 mg i.v.) plasma pharmacokinetics (MDZ and 1′-OH-MDZ) alone and after repeated inhibitor administration
condition: human, in vivo, iv, 1 mg, i.v. MDZ CL, Baseline, APZ arm; MDZ 1.0 mg i.v. before inhibitor; geometric mean (range)
readout.kind: clearance

Exam item: GET /values?readout=clearance&item= Cc1ncc2n1-c1ccc(Cl)cc1C(c1ccccc1F)=NC2 [MDZ, midazolam]
Marked response: 993 mL/min

---

assay.procedure: Oral MDZ (1.5 mg p.o.) plasma pharmacokinetics (MDZ and 1′-OH-MDZ) alone and after repeated inhibitor administration
condition: human, in vivo, po, 1.5 mg, Oral MDZ AUC0-inf, Baseline, FKZ arm; MDZ 1.5 mg p.o. before inhibitor; geometric mean (range)
readout.kind: AUC(0-inf)
Mention the unit after the number when you answer.

Exam item: GET /values?readout=AUC(0-inf)&item= Cc1ncc2n1-c1ccc(Cl)cc1C(c1ccccc1F)=NC2
Marked response: 22.7 ng·h/mL
